# assayed-target: FLNA pentapeptide of SEQ ID NO: 1 (Bn-VAKGL) (Homo sapiens, UniProt P21333)
# experiment-summary: FITC-NLX-based FLNA screening assay (inhibition of FITC-naloxone binding to Bn-VAKGL on streptavidin plates)
# run-conditions: FLNA-binding compound 0.1 μM; 10 nM FITC-NLX; read-out: Percent Binding Inhibition

compound: Cc1ccc(C(C)C)c(OCC(O)CN2CC(C)OC(C)C2)c1 (centres unmarked) [Compound A0028]
reading-unit: %
inhibition at 0.1 µM: 43.8

compound: CC1CCC(C(C)C)C(OCC(O)CN2CC(C)OC(C)C2)C1 (centres unmarked) [Compound A0032-1]
reading-unit: %
inhibition at 0.1 µM: 43.9

compound: COc1ccc(CCC(=O)CC2c3c(cc4c(c3OC)OCO4)CCN2C)cc1 (centres unmarked) [Compound B0047]
reading-unit: %
inhibition at 0.1 µM: 37.6

compound: Cc1cccc(OCC(O)CN2CC(C)OC(C)C2)c1 (centres unmarked) [Compound A0030]
reading-unit: %
inhibition at 0.1 µM: 44.4

compound: CC(=O)c1ccc(C(=O)N2CCOC23CCN(S(=O)(=O)c2ccc(C(C)=O)cc2)CC3)cc1 [Compound C0053]
reading-unit: %
inhibition at 0.1 µM: 33.8

compound: OC(COc1ccc(Br)c(F)c1)CN1CCc2ccccc2C1 (centres unmarked) [Compound A0057]
reading-unit: %
inhibition at 0.1 µM: 37

compound: CC1CCC(C(C)C)C(OCC(O)CN2CCOCC2)C1 (centres unmarked) [Compound A0004]
reading-unit: %
inhibition at 0.1 µM: 43.7

compound: CC1CCC(C(C)C)C(OCC(O)CN2CCCCC2=O)C1 (centres unmarked) [Compound A0036]
reading-unit: %
inhibition at 0.1 µM: 50.1

compound: CC(=O)c1ccc(S(=O)(=O)N2CCC3(CC2)NC(=O)CO3)cc1 [Compound C0087M]
reading-unit: %
inhibition at 0.1 µM: 57.9

compound: COc1ccc(S(=O)(=O)N2CCOC23CCNCC3)cc1 [Compound C0027]
reading-unit: %
inhibition at 0.1 µM: 61.2

compound: COc1ccc(C(=O)N2CCC3(CC2)OCCN3S(=O)(=O)c2ccc(OC)cc2)cc1 [Compound C0018]
reading-unit: %
inhibition at 0.1 µM: 45.9

compound: CC1CCC(C(C)C)C(OCC(O)CN2CCN(C)CC2)C1 (centres unmarked) [Compound A0009]
reading-unit: %
inhibition at 0.1 µM: 37.8

compound: COc1ccc(S(=O)(=O)N2CCC3(CC2)OCCN3S(=O)(=O)c2ccc(OC)c(OC)c2)cc1OC [Compound C0049]
reading-unit: %
inhibition at 0.1 µM: 27.9

compound: CC1CN(CC(O)COc2ccccc2Br)CC(C)O1 (centres unmarked) [Compound A0043]
reading-unit: %
inhibition at 0.1 µM: 48.9

compound: CC1CCC(C(C)C)C(OCC(O)CN2CCSC2)C1 (centres unmarked) [Compound A0002]
reading-unit: %
inhibition at 0.1 µM: 43.7

compound: O=S(=O)(c1ccc(Br)cc1Br)N1CCC2(CC1)OCCN2S(=O)(=O)c1ccc(Br)cc1Br [Compound C0070]
reading-unit: %
inhibition at 0.1 µM: 50.6

compound: CC1CCC(C(C)C)C(OCC(O)CN2CCCN(C)CC2)C1 (centres unmarked) [Compound A0010]
reading-unit: %
inhibition at 0.1 µM: 36.5

compound: OC(COc1cccc(F)c1)CN1CCc2ccccc2C1 (centres unmarked) [Compound A0055]
reading-unit: %
inhibition at 0.1 µM: 32.4

compound: COC(=O)c1ccc(S(=O)(=O)N2CCC3(CC2)OCCN3S(=O)(=O)c2ccc(C(=O)OC)cc2)cc1 [Compound C0028]
reading-unit: %
inhibition at 0.1 µM: 36.6

compound: CC1CCC(C)C(OCC(O)CN2CC(C)OC(C)C2)C1 (centres unmarked) [Compound A0022]
reading-unit: %
inhibition at 0.1 µM: 49.7

* * *

Catalogue of compounds with associated Concentration of FLNA-Binding Compound as Agonist 1 μM
# Test system: mu opiate receptor (MOR)
# experiment-summary: MOR agonist activity using [35S]GTPγS binding assay in striatal membranes
# Format: biochemical
# run-conditions: Series C-1; 1 μM compound; [35S]GTPγS binding to Gαo, striatal membranes
test-readout: Concentration of FLNA-Binding Compound as Agonist 1 μM (%)

compound: C[C@@H](NC(=O)[C@@H](N)Cc1ccc(O)cc1)C(=O)NCC(=O)N(C)[C@@H](Cc1ccccc1)C(=O)NCCO [DAMGO, [D-Ala2, N-MePhe4, Gly-ol]-enkephalin, reference compound]
reading-unit: %
reported-result: 266.1
//
compound: COc1ccc(S(=O)(=O)N2CCC3(OCCN3S(=O)(=O)c3ccc(OC)cc3)C3CCCCC32)cc1 (stereo not shown) [Compound C0144M]
reading-unit: %
reported-result: 295.9
//
compound: CNc1ccc(S(=O)(=O)N2CCC3(CC2)OCCN3S(=O)(=O)c2ccc(NC)cc2)cc1 [Compound C0024]
reading-unit: %
reported-result: 229.6
//
compound: NS(=O)(=O)c1ccc(S(=O)(=O)N2CCC3(CC2)OCCN3S(=O)(=O)c2ccc(S(N)(=O)=O)cc2)cc1 [Compound C0034]
reading-unit: %
reported-result: 167.9

* * *

# Test system: mu opiate receptor (MOR)
# experiment-summary: MOR agonist activity using [35S]GTPγS binding assay in striatal membranes
# Type: biochemical
# run-conditions: Series C-1; 1 μM compound + 1 μM β-FNA
If the reported Concentration of FLNA-Binding Compound as Agonist 1 μM + BFNA equals or exceeds 80%, assign condition met. If not, assign condition not met.

compound: O=S(=O)(c1ccc(Br)cc1F)N1CCC2(CC1)OCCN2S(=O)(=O)c1ccc(Br)cc1F [Compound C0078]
label: condition met
--
compound: O=S(=O)(c1csc2ccccc12)N1CCC2(CC1)OCCN2S(=O)(=O)c1csc2ccccc12 [Compound C0150M]
label: condition met
--
compound: CC(=O)c1ccc(S(=O)(=O)N2CCC3(CC2)OCC(CCCCN(C)C)N3S(=O)(=O)c2ccc(C(C)=O)cc2)cc1 (centres unmarked) [Compound C0080]
label: condition met
--
compound: O=S(=O)(c1ccc(Cl)cc1)N1CCC2(CC1)OCCN2S(=O)(=O)c1ccc(Cl)cc1 [Compound C0067]
label: condition not met
--
compound: N#Cc1ccccc1S(=O)(=O)N1CCC2(CC1)OCCN2S(=O)(=O)c1ccccc1C#N [Compound C0004]
label: condition not met
--
compound: O=S(=O)(c1ccc(F)c(F)c1)N1CCC2(CC1)OCCN2S(=O)(=O)c1ccc(F)c(F)c1 [Compound C0072]
label: condition not met
--
compound: O=S(=O)(c1ccc(C(F)(F)F)cc1)N1CCC2(CC1)OCCN2S(=O)(=O)c1ccc(C(F)(F)F)cc1 [Compound C0012]
label: condition met
--
compound: CCCCc1ccc(S(=O)(=O)N2CCC3(CC2)OCCN3S(=O)(=O)c2ccc(CCCC)cc2)cc1 [Compound C0030]
label: condition met
--
compound: COc1ccc(C(=O)N2CCC3(CC2)OCCN3S(=O)(=O)c2ccc(OC)cc2)cc1 [Compound C0018]
label: condition met
--
compound: COc1ccc(S(=O)(=O)N2CCC3(CC2)OCCN3S(=O)(=O)c2ccc(OC)cc2)cc1 [Compound 7866]
label: condition not met
--
compound: O=S(=O)(c1cccc(OC(F)(F)F)c1)N1CCC2(CC1)OCCN2S(=O)(=O)c1cccc(OC(F)(F)F)c1 [Compound C0005]
label: condition met
--
compound: COc1ccc(S(=O)(=O)N2CCC3(CC2)OCCN3S(=O)(=O)c2ccc(C(C)=O)cc2)cc1 [Compound C0048]
label: condition met
--
compound: CC(C)c1ccc(S(=O)(=O)N2CCC3(CC2)OCCN3S(=O)(=O)c2ccc(C(C)C)cc2)cc1 [Compound C0007]
label: condition not met
--
compound: O=S(=O)(c1ccccc1)N1CCC2(CC1)OCCN2S(=O)(=O)c1ccccc1 [Compound C0016]
label: condition met
--
compound: O=S(=O)(c1cccc2cccnc12)N1CCC2(CC1)OCCN2S(=O)(=O)c1cccc2cccnc12 [Compound C0143M]
label: condition met

* * *

# assayed-target: FLNA pentapeptide of SEQ ID NO: 1 (Bn-VAKGL) (Homo sapiens)
# experiment-summary: FITC-NLX-based FLNA screening assay (inhibition of FITC-naloxone binding to Bn-VAKGL on streptavidin plates)
# run-conditions: read-out: Percent Binding Inhibition, FLNA-binding compound 0.01 μM; 10 nM FITC-NLX
Catalogue of compounds with associated inhibition at 0.01 µM

compound: COc1c2c(cc3c1C(CC(O)CCc1ccccc1)[N+](C)(C)CC3)OCO2 (stereo not drawn) [Compound B0052]
assayed-target: FLNA pentapeptide of SEQ ID NO: 1 (Bn-VAKGL) (Homo sapiens)
reading-unit: %
inhibition at 0.01 µM: 30.2
--
compound: NS(=O)(=O)c1ccc(S(=O)(=O)N2CCC3(CC2)OCCN3S(=O)(=O)c2ccc(S(N)(=O)=O)cc2)cc1 [Compound C0034]
assayed-target: FLNA pentapeptide of SEQ ID NO: 1 (Bn-VAKGL) (Homo sapiens)
reading-unit: %
inhibition at 0.01 µM: 29.6
--
compound: CC(=O)c1ccc(S(=O)(=O)N2C(Cc3c[nH]cn3)C(=O)NC23CCNCC3)cc1 (stereo not drawn) [Compound C0119M]
assayed-target: FLNA pentapeptide of SEQ ID NO: 1 (Bn-VAKGL) (Homo sapiens)
reading-unit: %
inhibition at 0.01 µM: 41.6
--
compound: O=S(=O)(c1csc2ccccc12)N1CCC2(CC1)OCCN2S(=O)(=O)c1csc2ccccc12 [Compound C0150M]
assayed-target: FLNA pentapeptide of SEQ ID NO: 1 (Bn-VAKGL) (Homo sapiens)
reading-unit: %
inhibition at 0.01 µM: 47.3
--
compound: COc1ccc(C(=O)CC2c3c(cc4c(c3OC)OCO4)CC[N+]2(C)C)cc1OC (stereo not drawn) [Compound B0026]
assayed-target: FLNA pentapeptide of SEQ ID NO: 1 (Bn-VAKGL) (Homo sapiens)
reading-unit: %
inhibition at 0.01 µM: 41.1
--
compound: COc1cc(F)ccc1C(=O)CC1c2c(cc3c(c2OC)OCO3)CC[N+]1(C)C (stereo not drawn) [Compound B0007]
assayed-target: FLNA pentapeptide of SEQ ID NO: 1 (Bn-VAKGL) (Homo sapiens)
reading-unit: %
inhibition at 0.01 µM: 43.6
--
compound: COCOc1ccc(C(=O)CC2c3c(cc4c(c3OC)OCO4)CC[N+]2(C)C)cc1C (stereo not drawn) [Compound B0041]
assayed-target: FLNA pentapeptide of SEQ ID NO: 1 (Bn-VAKGL) (Homo sapiens)
reading-unit: %
inhibition at 0.01 µM: 44
--
compound: O=S(=O)(c1cccs1)N1CCC2(CC1)OCCN2S(=O)(=O)c1cccs1 [Compound C0141M]
assayed-target: FLNA pentapeptide of SEQ ID NO: 1 (Bn-VAKGL) (Homo sapiens)
reading-unit: %
inhibition at 0.01 µM: 33.1
--
compound: COc1ccc(NC(=O)N2CCC3(CC2)OCCN3C(=O)Nc2ccc(OC)cc2)cc1 [Compound C0151M]
assayed-target: FLNA pentapeptide of SEQ ID NO: 1 (Bn-VAKGL) (Homo sapiens)
reading-unit: %
inhibition at 0.01 µM: 48.3
